Molecular target: T1, GST-hHR23A, residues 1–363 (WT hHR23AFL) (human, UniProt P54725 1-363)
T1 construct: human hHR23A, full length, residues 1–363; also called GST-tagged WT hHR23A; source: recombinant
T1 sequence (looked up): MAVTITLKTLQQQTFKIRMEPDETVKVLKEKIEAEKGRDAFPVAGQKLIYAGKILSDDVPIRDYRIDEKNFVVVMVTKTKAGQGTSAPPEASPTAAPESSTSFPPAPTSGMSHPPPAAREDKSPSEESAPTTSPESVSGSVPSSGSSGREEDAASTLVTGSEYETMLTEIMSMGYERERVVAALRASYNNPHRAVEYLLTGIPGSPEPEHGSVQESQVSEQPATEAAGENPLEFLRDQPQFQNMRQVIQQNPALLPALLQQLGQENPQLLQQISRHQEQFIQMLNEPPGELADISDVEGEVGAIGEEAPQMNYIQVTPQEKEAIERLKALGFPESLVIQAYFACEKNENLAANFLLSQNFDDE
Experiment: pull-down; 1000 pmol GST-tagged hHR23A/B and 1000 pmol NusA–VprFL in 500 μl PBS, 30 min 4 °C; TEV cleavage overnight at 4 °C; Glutathion-Sepharose 4B beads; anti-His immunoblot
Conditions: both partners purified
quantityMeasured: binding result

INSERT INTO results (binder, quantitymeasured, value) VALUES
  ('recombinant VprFL Y50S (natural protein, HIV-1 Vpr, full length, with Y50S; source: recombinant NusA–VprFL) MEQAPEDQGPQREPYNEWTLELLEELKSEAVRHFPRIWLHNLGQHIYETSGDTWAGVEAIIRILQQLLFIHFRIGCRHSRIGVTRQRRARNGASRS', 'binding result', 'binds'),
  ('recombinant VprFL (from NusA–VprFL) (natural protein, HIV-1 Vpr, full length (FL); also called VprFL WT; source: recombinant NusA–VprFL) MEQAPEDQGPQREPYNEWTLELLEELKSEAVRHFPRIWLHNLGQHIYETYGDTWAGVEAIIRILQQLLFIHFRIGCRHSRIGVTRQRRARNGASRS', 'binding result', 'binds'),
  ('recombinant VprFL R73A (natural protein, HIV-1 Vpr, full length, with R73A; source: recombinant NusA–VprFL) MEQAPEDQGPQREPYNEWTLELLEELKSEAVRHFPRIWLHNLGQHIYETYGDTWAGVEAIIRILQQLLFIHFAIGCRHSRIGVTRQRRARNGASRS', 'binding result', 'binds');

Cited source: paper PMC8617076
